Organism: Danio rerio
test_method_notes: Toxicity in 24 to 72 hrs post fertilized zebra fish embryo harboring fli1:EGFP
Format: organism-based
conditions_used: zebrafish, in vivo
Respond with fulfilled for LC100 values of 50 µM and above, not fulfilled for values below.

| record_smiles | qualitative_label |
| --- | --- |
| O=C(COc1c(OCc2ccccc2)cc2oc(-c3ccccc3)cc(=O)c2c1O)N1CCN(c2ncccn2)CC1 | fulfilled |
| O=C(COc1c(OCc2ccccc2)cc2oc(-c3ccccc3)cc(=O)c2c1O)N1CCC(O)CC1 | fulfilled |
| O=C(COc1c(O)cc2oc(-c3ccccc3)cc(=O)c2c1O)N1CCN(CCO)CC1 | fulfilled |
| COc1c(OCCCN(C)CCO)c(O)cc2oc(-c3ccccc3)cc(=O)c12 | fulfilled |
| O=c1cc(-c2ccccc2)oc2cc(O)c(OCCCCCO)c(O)c12 | not fulfilled |
| O=c1cc(-c2ccccc2)oc2cc(O)c(OCCCCO)c(O)c12 | not fulfilled |
| O=c1cc(-c2ccccc2)oc2cc(O)c(O)c(O)c12 | not fulfilled |
| Cc1cc(C)c(/C=C2\C(=O)Nc3ccccc32)[nH]1 | not fulfilled |
| O=c1cc(-c2ccccc2)oc2cc(O)c(OCCCO)c(O)c12 | not fulfilled |
| CCN(CC)C(=O)COc1c(O)cc2oc(-c3ccccc3)cc(=O)c2c1O | fulfilled |
| O=C(COc1c(O)cc2oc(-c3ccccc3)cc(=O)c2c1O)NCCO | fulfilled |
| O=c1cc(-c2ccccc2)oc2cc(O)c(OCCCCCNCCO)c(O)c12 | fulfilled |
